Could you please report measured IC50 for the items listed next?
Target: GTPase KRas [G12D] (Homo sapiens, UniProt P01116, G12D)
Sequence (P01116 whole entry G12D): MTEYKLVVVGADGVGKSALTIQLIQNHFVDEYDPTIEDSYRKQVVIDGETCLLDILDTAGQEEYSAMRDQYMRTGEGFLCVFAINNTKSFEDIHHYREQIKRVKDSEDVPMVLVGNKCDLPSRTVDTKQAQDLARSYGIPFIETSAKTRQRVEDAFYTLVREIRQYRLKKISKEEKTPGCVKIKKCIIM
Experiment: Biochemical Assay
Numbers only, in nM.

Illustrative cases are given below, each with its answer.
Fc1ccc2cccc(-c3nc4c5c(nc(OC[C@@]67CCCN6C[C@H](F)C7)nc5c3F)N3C[C@H]5CC[C@H](N5)[C@H]3CC4)c2c1OC(F)(F)F [US20230339981, Example 65]    89
C#Cc1c(F)ccc2cc(O)cc(-c3nc4c5c(nc(OCC6(CN7CCC8(CC7)CC8)CC6)nc5c3F)N3C[C@H]5CC[C@H](N5)[C@H]3CC4)c12 [US20230339981, Example 177]    0.1
C#Cc1c(F)ccc2cc(O)cc(-c3nc4c5c(nc(OC[Si](C)(C)CN6CCOCC6)nc5c3F)N3C[C@H]5CC[C@H](N5)[C@H]3CO4)c12 [US20230339981, Example 29]    560
C#Cc1c(F)ccc2cc(O)cc(-c3nc4c5c(nc(OC[C@@]67CCCN6C[C@H](F)C7)nc5c3F)N3C[C@H]5CC[C@H](N5)[C@@H]3CC4)c12 [US20230339981, Example 133]    0.1

Turning to the following molecule.
Summary for this molecule, C#Cc1c(F)ccc2cccc(-c3nc4c5c(nc(OC[C@@]67CCCN6C[C@@H](OC(F)(F)F)C7)nc5c3F)N3C[C@H]5CC[C@H](N5)[C@H]3CC4)c12 [US20230339981, Example 140] : IC50 is 3.7
